- PROCEDURE_TEXT: chemical genetic growth profiling, strain panel (AID 1159580);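 also: tested at 20 µM; growth read once vehicle control cultures reached saturation at 30 °C; 1 = growth at the plate median or of vehicle wells; lower values mean less growth of the strain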
- STUDY_CONDITIONS: S. cerevisiae deletion strains, growth OD, locus YJL187C, strain SWE1 (second series), stronger effect = lower value
About 2,000 (36%) of roughly 5,500 compounds were called active. About 18% were inconclusive and are not listed. Some of the results follow.
Assign normalized growth to each entry below.
# print the numeric value only

Entry C=C1C([C@]2(C)C(CC(=O)OC)[C@@](C)(COC(C)=O)OC(=O)C[C@@H]2OC(C)=O)[C@@H](OC=O)[C@H](OC(=O)C(O)C(C)CC)[C@@]2(C)[C@H](c3ccoc3)CC(=O)C12O (some centres undefined) ; normalized growth = 1.02

Entry "COc1cc2c(cc1OC)[C@@H]1C(=O)c3ccc(OC)c(CC=C(C)C)c3O[C@@H]1CO2" ; normalized growth = 1

Entry "CN1CCC(=C2c3ccccc3Sc3ccccc32)CC1" ; normalized growth = 1.02

Entry "CN[C@@H](C)[C@@H](O)c1ccccc1" ; normalized growth = 1.03

Entry CC(N)C(=O)OC(C)(C)Cc1ccc(Cl)cc1 (centres undefined) ; normalized growth = 0.978

Entry C=C1C([C@]2(C)C(CC(=O)OC)[C@@](C)(COC(C)=O)OC(=O)C[C@@H]2OC(C)=O)[C@@H](OC=O)[C@H](OC(=O)C(OC(C)=O)C(C)CC)[C@@]2(C)[C@H](c3ccoc3)CC(=O)C12O (some centres undefined) ; normalized growth = 1.03

Entry CCC(C)C(OC(C)=O)C(=O)OC1C(O)C2C3(C)C=CC(=O)C(C)(C)C3CC(OC(=O)C(O)C(C)C)C2(C)C23OC2CC(c2ccoc2)C13C (centres undefined) ; normalized growth = 1.01

Entry CNC(C)[C@H](O)c1ccccc1 (some centres undefined) ; normalized growth = 1.01

Entry "COc1cc2c(cc1OC)[C@@H]1C(=O)c3ccc(O)c(CC=C(C)C)c3O[C@@H]1CO2" ; normalized growth = 0.951

---

- PROCEDURE_TEXT: chemical genetic growth profiling, strain panel (AID 1159580)
- STUDY_CONDITIONS: S. cerevisiae deletion strains, growth OD, locus YLR027C, strain aat2, stronger effect = lower value
In all, about 5,500 compounds went through this assay and about 2,000 (36%) were called active. Inconclusive results (about 18%) are left out. Some of the results follow.
Assign normalized growth to each entry below.
# print the numeric value only

Entry "COc1ccc2c3c1O[C@H]1C[C@@H](O)C=C[C@@]31CCN(C)C2" ; normalized growth = 0.989

Entry "COc1cc(NS(=O)(=O)c2ccc(N)cc2)nc(OC)n1" ; normalized growth = 0.988

Entry CC1CC2C3CCC4=CC(=O)C=C[C@]4(C)[C@@]3(F)[C@@H](O)C[C@]2(C)[C@@]1(O)C(=O)CO (stereo not given in full) ; normalized growth = 0.997

Entry "CCCCCCCCCCCCCCCC(=O)OC/C=C(C)/C=C/C=C(C)/C=C/C1=C(C)CCCC1(C)C" ; normalized growth = 1.01

Entry "CC1=C(/C=C/C(C)=C/C=C/C(C)=C/C=C/C=C(C)/C=C/C=C(C)/C=C/C2=C(C)C(=O)CCC2(C)C)C(C)(C)CCC1=O" ; normalized growth = 1.01

---

- PROCEDURE_TEXT: chemical genetic growth profiling, strain panel (AID 1159580);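 also: tested at 20 µM; growth read once vehicle control cultures reached saturation at 30 °C; 1 = growth at the plate median or of vehicle wells; lower values mean less growth of the strain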
- STUDY_CONDITIONS: S. cerevisiae deletion strains, growth OD, locus YGR078C, strain PAC10, stronger effect = lower value
Out of some 5,500 compounds screened, about 2,000 (36%) were called active. About 18% were inconclusive and are not listed. Some of the results follow.
PROPERTY_NAME: normalized growth
# print the numeric value only

Entry "CCOC(=O)[C@H](CCc1ccccc1)N[C@H]1CCc2ccccc2N(CC(=O)O)C1=O" ; normalized growth = 1.01

Entry CCC(NC(C)C)C(O)c1ccc(O)c(O)c1 (centres undefined) ; normalized growth = 1.02

Entry CC12CCC3C(CCC4=CC(=O)CCC43CO)C1CCC2OC(=O)c1ccccc1 (centres undefined) ; normalized growth = 1.01

Entry "CC(C)(O)[C@@H]1[C@H]2OC(=O)[C@@H]1[C@]1(O)C[C@H]3O[C@]34C(=O)O[C@H]2[C@]14C" ; normalized growth = 1

Entry "O=C1c2cccc3c([N+](=O)[O-])ccc(c23)C(=O)N1Cc1ccco1" ; normalized growth = 0.879

Entry CCC(C)C(OC(C)=O)C(=O)OC1C(O)C2C3(C)C=CC(=O)C(C)(C)C3CC(OC(=O)C(O)C(C)C)C2(C)C23OC2CC(c2ccoc2)C13C (centres undefined) ; normalized growth = 1.04

Entry CC1CC2C3CC(F)C4=CC(=O)C=CC4(C)C3(F)C(O)CC2(C)C1(O)C(=O)CO (centres undefined) ; normalized growth = 1.04

Entry "O=C(CSc1nnnn1-c1ccccc1)NC1Cc2ccccc2C1" ; normalized growth = 1.02

Entry "CCOC(=O)c1[nH]c(Cc2[nH]c(C(=O)OCC)c(C)c2C)c(C)c1C" ; normalized growth = 1.02

Entry CC1/C(=N\O)C[C@@H]2C[C@H]1C2(C)C (some centres undefined) ; normalized growth = 1.03

Entry CC(C)(C)c1onc(OCP(=O)(O)O)c1CC(N)C(=O)O (centres undefined) ; normalized growth = 1.01

Entry C[C@]12CCC(=O)C=C1CCC1C2CC[C@@]2(C)C1CC[C@@H]2O (some centres undefined) ; normalized growth = 1.02

Entry "COc1cc2c(cc1OC)Cc1cc(OC)c(OC)cc1Cc1cc(OC)c(OC)cc1C2" ; normalized growth = 1.02

Entry "Cc1cccc(Cn2c(C)c(C)c(S(=O)(=O)c3ccccc3)c2N)c1C" ; normalized growth = 1.03

---

- PROCEDURE_TEXT: chemical genetic growth profiling, strain panel (AID 1159580);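 also: tested at 20 µM; growth read once vehicle control cultures reached saturation at 30 °C; 1 = growth at the plate median or of vehicle wells; lower values mean less growth of the strain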
- STUDY_CONDITIONS: S. cerevisiae deletion strains, growth OD, locus YNR052C, strain pop2, stronger effect = lower value
Screen size: about 5,500 compounds; about 2,000 (36%) were called active. Another 18% or so got no clear call; they are omitted. The list shows a part of the results.
PROPERTY_NAME: normalized growth
# print the numeric value only

Entry CCC(C)C(=O)O[C@H]1[C@H](O)C2C(CN3CC(C)CCC3[C@@]2(C)O)C2C[C@]34O[C@]5(O)C(OC(=O)C(C)(O)C(C)O)CC[C@@]3(C)C5C(OC(C)=O)[C@@H](OC(C)=O)C4[C@@]21O (stereo partly drawn) ; normalized growth = 1

Entry "C=C(C)[C@@H]1[C@H]2OC(=O)[C@@H]1[C@]1(O)C[C@H]3O[C@]34C(=O)O[C@H]2[C@]14C" ; normalized growth = 1

Entry "S=c1nc[nH]c2nc[nH]c12" ; normalized growth = 0.979

Entry "CN(C)C(=S)SSC(=S)N(C)C" ; normalized growth = 0.0601

Entry "CN1CCC(=C2c3ccccc3CC(=O)c3sccc32)CC1" ; normalized growth = 1.01

Entry "CN(C)CC/C=C1\c2ccccc2Sc2ccc(Cl)cc21" ; normalized growth = 0.964

Entry "c1ccc(N=Nc2ccccc2)cc1" ; normalized growth = 1.03

Entry CC(=O)OCC(=O)[C@@]1(O)CCC2C3CCC4=CC(=O)CC[C@]4(C)C3C(=O)C[C@@]21C (stereo partly drawn) ; normalized growth = 1.02

Entry "CN1CCC(=C2c3ccccc3Sc3ccccc32)CC1" ; normalized growth = 0.973

Entry "CC1(C)OC(=O)NC1=O" ; normalized growth = 0.971

Entry C=Cc1c2[nH]c(c1C)C=c1[nH]c(c(C)c1C=C)=CC1N=C(C=c3[nH]c(c(C)c3CCC(=O)O)=C2)C(CCC(=O)O)=C1C (stereo not drawn) ; normalized growth = 1

Entry CC(=O)OCC(=O)[C@H]1CCC2C3CCC4=CC(=O)CC[C@]4(C)C3CC[C@@]21C (stereo partly drawn) ; normalized growth = 0.986

Entry "COc1ccc2c(c1OC)C(=O)O[C@@H]2[C@H]1c2cc3c(cc2CCN1C)OCO3" ; normalized growth = 1.02

Entry OCC(O)C(O)C(O)CO (stereo not drawn) ; normalized growth = 1.01

Entry "COc1cc(NS(=O)(=O)c2ccc(N)cc2)nc(OC)n1" ; normalized growth = 0.986

Entry OCCN1C[C@@H](O)[C@@H](O)C(O)C1CO (stereo partly drawn) ; normalized growth = 0.999

Entry ClC1=C(Cl)C2(Cl)C3C4C=CC(C4)C3C1(Cl)C2(Cl)Cl (stereo not drawn) ; normalized growth = 0.979

Entry "CC(=O)N[C@@H](CC(C)C)C(=O)O" ; normalized growth = 0.986

---

Assign normalized growth to each entry below.
- PROCEDURE_TEXT: chemical genetic growth profiling, strain panel (AID 1159580);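 also: tested at 20 µM; growth read once vehicle control cultures reached saturation at 30 °C; 1 = growth at the plate median or of vehicle wells; lower values mean less growth of the strain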
- STUDY_CONDITIONS: S. cerevisiae deletion strains, growth OD, locus YPR163C, strain tif3, stronger effect = lower value
Screen size: about 5,500 compounds; about 2,000 (36%) were called active. Inconclusive results (about 18%) are left out. The list shows a part of the results.
# print the numeric value only

Entry C=C1C([C@]2(C)C(CC(=O)OC)[C@@](C)(COC(C)=O)OC(=O)C[C@@H]2OC(C)=O)[C@@H](OC=O)[C@H](OC(=O)C(OC(C)=O)C(C)CC)[C@@]2(C)[C@H](c3ccoc3)CC(=O)C12O (stereo partly drawn) ; normalized growth = 1.04

Entry CC(N)CCCC(C)(C)O (stereo not drawn) ; normalized growth = 1

Entry CCC(C)C(OC(C)=O)C(=O)OC1C(O)C2C3(C)C=CC(=O)C(C)(C)C3CC(OC(=O)C(O)C(C)C)C2(C)C23OC2CC(c2ccoc2)C13C (stereo not drawn) ; normalized growth = 0.986

Entry "CCCCCCCCCCCCCCCC(=O)OC/C=C(C)/C=C/C=C(C)/C=C/C1=C(C)CCCC1(C)C" ; normalized growth = 1

Entry C=C1C([C@]2(C)C(CC(=O)OC)[C@@](C)(COC(C)=O)OC(=O)C[C@@H]2OC(C)=O)[C@@H](OC=O)[C@H](OC(=O)C(O)C(C)CC)[C@@]2(C)[C@H](c3ccoc3)CC(=O)C12O (stereo partly drawn) ; normalized growth = 1.01

Entry "COc1ccc2c(C)cc(=O)oc2c1" ; normalized growth = 1.03

Entry C[C@H]1CC2C([C@@H](O)C[C@@]3(C)C2CC[C@]3(O)C(=O)CO)[C@@]2(C)C=CC(=O)C=C12 (stereo partly drawn) ; normalized growth = 1.02

Entry CC1=C(/C=C/C(C)=C/C=C/C(C)=C/C=C/C=C(C)/C=C/C=C(C)/C=C/C23OC2(C)CC(O)CC3(C)C)C(C)(C)CC(O)C1 (stereo not drawn) ; normalized growth = 1.01

Entry "COC1=CC(=O)C[C@@H](C)[C@]12Oc1c(Cl)c(OC)cc(OC)c1C2=O" ; normalized growth = 0.98

Entry CC1CC2C3CCC4=CC(=O)C=C[C@]4(C)[C@@]3(F)[C@@H](O)C[C@]2(C)[C@@]1(O)C(=O)CO (stereo partly drawn) ; normalized growth = 0.981

Entry "S=c1nc[nH]c2nc[nH]c12" ; normalized growth = 0.974

Entry "CC1(C)OC(=O)NC1=O" ; normalized growth = 0.982

Entry "NC(=O)c1ccc[n+]([C@@H]2O[C@H](COP(=O)([O-])OP(=O)(O)OC[C@H]3O[C@@H](n4cnc5c(N)ncnc54)[C@H](O)[C@@H]3O)[C@@H](O)[C@H]2O)c1" ; normalized growth = 1
